# PROTOCOL NOTES: Inhibition of CYP3A in rat liver microsome using testosterone as substrate by HPLC-PDA analysis
# Type: ADME, microsomes
REPORTED METRIC: IC50

Bench note: what IC50 did CCO[C@H]1O[C@@H]2O[C@@]3(C)CC[C@H]4[C@H](C)CC[C@@H]([C@H]1C)[C@@]24OO3 [ARTEMOTIL] show? > 100 µM

----------
# PROTOCOL NOTES: Effective permeability coefficient of the compound in Sprague-Dawley rat intestine at 10 uM by In-situ single pass intestinal perfusion technique
# Format: ADME, tissue-based
# CONDITIONS: other: in situ single pass intestinal perfusion, read-out: Peff
REPORTED METRIC: Papp at 10 µM (×10⁻⁶ cm/s)
Form entry: value (×10⁻⁶ cm/s) — number only.

Bench note: what Papp at 10 µM did C=C(c1ccc(Cl)cc1)[C@H]1OOC2(CCCCC2)O[C@@H]1c1ccc(Cl)cc1 (relative stereo) show? 113

----------
# SYSTEM TESTED: Cytochrome P450 2C11 (Rattus norvegicus)
# Sequence (P08683 whole entry): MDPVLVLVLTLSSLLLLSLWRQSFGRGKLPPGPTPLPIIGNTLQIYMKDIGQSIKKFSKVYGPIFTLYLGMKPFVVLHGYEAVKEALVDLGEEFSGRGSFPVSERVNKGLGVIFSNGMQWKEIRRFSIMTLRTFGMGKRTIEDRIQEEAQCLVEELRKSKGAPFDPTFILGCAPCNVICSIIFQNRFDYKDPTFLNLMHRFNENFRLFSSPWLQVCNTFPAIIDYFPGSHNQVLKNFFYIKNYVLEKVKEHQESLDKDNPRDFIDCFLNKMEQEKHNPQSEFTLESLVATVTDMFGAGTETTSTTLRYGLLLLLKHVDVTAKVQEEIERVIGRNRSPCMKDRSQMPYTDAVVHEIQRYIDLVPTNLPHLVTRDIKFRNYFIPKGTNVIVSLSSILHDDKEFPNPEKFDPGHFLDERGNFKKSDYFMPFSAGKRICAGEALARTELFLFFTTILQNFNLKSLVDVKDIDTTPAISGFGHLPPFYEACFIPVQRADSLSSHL
pIC50: −log10 of the molar value.
REPORTED METRIC: pIC50

Bench note: what pIC50 did CCO[C@H]1O[C@@H]2O[C@@]3(C)CC[C@H]4[C@H](C)CC[C@@H]([C@H]1C)[C@@]24OO3 show? < 4.00

----------
# PROTOCOL NOTES: Metabolic stability in rat liver microsomes at […] after 30 mins by HPLC-PDA analysis
# Format: ADME, Microsome
# CONDITIONS: read-out: Stability
REPORTED METRIC: remaining at 0.5 h (%)
Form entry: value (%) — number only.

Bench note: what remaining at 0.5 h did CCO[C@H]1O[C@@H]2O[C@@]3(C)CC[C@H]4[C@H](C)CC[C@@H]([C@H]1C)[C@@]24OO3 [ARTEMOTIL] show? 50

----------
# Test system: Plasmodium yoelii nigeriensis
# PROTOCOL NOTES: Antimalarial activity against chloroquine, mefloquine and halofantrine-resistant Plasmodium yoelii nigeriensis infected in Swiss mouse assessed as suppression of parasitemia at 96 mg/kg, im administered for 4 days measured on day 4
# Type: functional
# CONDITIONS: 96 h, route intramuscular
Recorded inhibition in vivo at 96 mg/kg values for a group of compounds are listed next.
Form entry: value (%) — number only.

The examples below pair each entry with its known result.
COMPOUND	REPORTED METRIC	RECORDED VALUE
C=C(c1ccc(C)cc1)[C@H]1OOC2(CCCCC2)O[C@@H]1c1ccc(C)cc1 (relative stereo)	inhibition in vivo at 96 mg/kg	16.6
C=C(c1ccc(Cl)cc1)[C@H]1OOC2(CCCCC2)O[C@@H]1c1ccc(Cl)cc1 (relative stereo)	inhibition in vivo at 96 mg/kg	3.45
C=C(c1ccccc1)[C@H]1OOC2(CCCC2)O[C@@H]1c1ccccc1 (relative stereo)	inhibition in vivo at 96 mg/kg	46.9
C=C(c1ccccc1)[C@H]1OOC2(O[C@@H]1c1ccccc1)C1CC3CC(C1)CC2C3 (relative stereo)	inhibition in vivo at 96 mg/kg	44.8
C=C(c1ccc(C)cc1)[C@H]1OOC2(O[C@@H]1c1ccc(C)cc1)C1CC3CC(C1)CC2C3 (relative stereo)	inhibition in vivo at 96 mg/kg	5.76

Read the next record carefully.
Lab note: need inhibition in vivo at 96 mg/kg for C=C(c1ccccc1)[C@H]1OOC2(CCCCC2)O[C@@H]1c1ccccc1 (relative stereo) on Plasmodium yoelii nigeriensis, anyone have it? 22.3
